Measured values drawn from ChEMBL document CHEMBL1201862 for this set.

- System: NCI-H522
- EXPERIMENTAL_DETAILS: NCI tumour cell line growth inhibition, 48 h
The source made the active and inactive calls. No stated cut-off is given here; in the data, active = GI50 up to about 1.1 µM and inactive = higher.
Would you mind answering with one of these outcomes? 1 = active, -1 = inactive

Sample answers from the record:
COMPOUND	TEST_SYSTEM	CATEGORY_LABEL
NC1=NN(c2ccccc2)C2(O)c3ccncc3C3=NN(c4ccccc4)C(=O)C132 (stereo not given)	NCI-H522	-1
COc1ccc(C[C@H]2COC(=O)[C@@H]2Cc2cc(OC)c(OC)c(OC)c2)cc1OC	NCI-H522	-1
C=C1CC(Cn2ccc(=O)[nH]c2=O)(c2ccc(Cl)cc2)OC1=O (stereo not given)	NCI-H522	1
COC(=O)N1[C@H]2Cc3c(OC)c(C)c(OC)c(OC)c3[C@@H]1/C(=C\c1cc(OC)c(OC)c(C)c1OC)N(Cc1ccccc1)C2=O	NCI-H522	-1
C[N+](C)(C)c1nc(N)nc2c1ncn2C1OC(CO)C(O)C1O (stereo not given)	NCI-H522	-1

Query :: What classification did CCOC(=O)/C(C(=O)Nc1ccc(Cl)cc1)=C(/N)N1CCCC1 end up with in this test?
Result :: -1

Query :: What classification did S=P(c1ccccc1)(c1ccccc1)C1(C2(P(=S)(c3ccccc3)c3ccccc3)CC2)CC1 end up with in this test?
Result :: -1

Query :: What classification did COc1ccc(/C=C2\CCC(C)C3=C2NC(=S)NC3c2ccc(OC)c(OC)c2)cc1OC (stereo not given) end up with in this test?
Result :: -1

###

- System: SN12C
- EXPERIMENTAL_DETAILS: NCI tumour cell line growth inhibition, 48 h
Activity calls are given as the source filed them. Cut-off read from the data, not from the text of the source: active = GI50 up to about 1.1 µM and inactive = higher.
Would you mind answering with one of these outcomes? Yes = active, No = inactive

Sample answers from the record:
COMPOUND	CATEGORY_LABEL
O=C(CCC1CCCCN1)Nc1ccc2c(c1)C(=O)c1ccc(NC(=O)CCN3CCCCC3)cc1C2=O (configuration not stated)	No
CCC1(CC)C(=O)N(C(=O)c2cc(OC)c(OC)c(OC)c2)N(C(=O)c2cc(OC)c(OC)c(OC)c2)C1=O	No
O=C(NO)c1ccc(OCc2ccccc2)cc1	No
Cc1cc2c(=O)cc(-c3ccc(F)cc3)oc2c(C(=O)O)c1C	No
COc1cc(OC)cc(-n2c(N)c(-c3nc4ccccc4s3)c3ccc([N+](=O)[O-])cc3c2=O)c1	No
CC#C[I+]c1ccccc1	No
N#CC1=C(S)N(C2OC(CO)C(O)C(O)C2O)C(c2ccccc2)=CC1c1cccs1 (configuration not stated)	No
Cc1c(Cc2ccccc2)n(C(C)OCCN(OC(=O)Oc2ccccc2)C(=O)Oc2ccccc2)c(=O)[nH]c1=O (configuration not stated)	No

Query :: What classification did CC(CCc1nc2ccccc2s1)(c1ccc(O)cc1)c1ccc(O)cc1 end up with in this test?
Result :: No

Query :: What classification did CC12CC3c4ccccc4CN1C3(c1ccccc1)OC2=O (configuration not stated) end up with in this test?
Result :: No

Query :: What classification did O=C(O)c1cc2ccccc2c(O)c1O end up with in this test?
Result :: No

###

- Test system: OVCAR-8
- EXPERIMENTAL_DETAILS: NCI tumour cell line growth inhibition, 48 h
Activity calls are given as the source filed them. Rule as the data show it: active = GI50 up to about 1.1 µM and inactive = higher.
Would you mind answering with one of these outcomes? active, inactive

COMPOUND	CATEGORY_LABEL
Cc1c(C)c(S(=O)(=O)N(CCCCCCN)OCCCN)c(C)c2c1OC(C)(C)CC2	inactive

Query :: What classification did Cc1c(-c2ccc(O)cc2)n(CCCCCCNCCOC(=O)NCCCc2ccc(N(CCCl)CCCl)cc2)c2ccc(O)cc12 end up with in this test?
Result :: inactive

Query :: What classification did CCN(CC)C1Oc2cc3c(cc2C(c2cccc(OC)c2OC)C1C)OCO3 (centres undefined) end up with in this test?
Result :: inactive
